Known kon of a selection of binders
# measured target: T1, human monomeric EGFR (EGFR.mmh) (human, UniProt P00533 25-647)
# T1 construct: Soluble monomeric EGFR construct
# method summary: SPR 37C, mAb captured by anti-human Fc, EGFR.mmh analyte
State the answer as a number, implicitly in M⁻¹ s⁻¹.

# binder, property label, measured number
records = [
    ("H1H158P (antibody, human IgG1, V domains shown, Human IgG1 Fc (H1H)) VH: QVQLVESGGGVVQPGGSLRLSCAASGFTFSIYGIHWVRQAPGKGLEWVAVISDDGSNKKYADSVKGRFTISRDNSKNTLYLQMNSLRAEDTAIFYCAKDRITGTHYYGMDVWGQGTTVTVSS VL: DIQMTQSPSSLSASVGDRVSITCRASQDISNYLAWFQQKPGKAPKSLIYAASSLQSGVPSKFSGSGSGIEFTLTISSLQPEDFSTYYCHQYNRFPWTFGQGTKVEIK", "kon", 131000),
    ("H1H155P (antibody, human IgG1, V domains shown, Human IgG1 Fc (H1H)) VH: QVQLVESGGGVVQPGRSLRLSCAASGFTFSIYGMHWVRQAPGKGLEWVTVISDDGSKKYYVDSVKGRFTLSRDNSKNTLYLQMNSLRAEDTAVYYCARDRITGTNWYGMDVWGQGTTVTVSS VL: DIQMTQSPSSLSASVGDRVTITCRASQDISNYLAWFQQKPGKAPKSLIFAASSLQSGGPSKFSGSGSGTDFTLTISSLQPEDFATYYCQQYNRYPFTFGPGTKVDIK", "kon", 176000),
]

Kindly review the next binder as well.
Recall and state the measured kon for H1H147P (antibody, human IgG1, V domains shown, Human IgG1 Fc (H1H)) VH: EVQLVESGPGLVQPSQTLSLTCTVSGGSINSGDFYWSWIRQHPGKGLEWIGHIYYSGITYYSPSLKSRLTISVDTSKNQFSLKLSSVTAADTAVYYCARKRVTGEVDYWGQGTLVTVSS VL: DIQMTQSPSSLSASVGDRITITCQANQDINNYLNWYQQKPGKAPKLLISDASNLETGVPSRFSGSGSGTDFTFTISSLQPEDIATYYCQQYDNLPPTFGQGTRLEIKR . 65400
